FYI, the data here is from paper PMC12655637.

Tested on: SNB-75
Test: NCI-60 screening, one-dose (10 µM) and five-dose, SRB
Assay type: cell-based, human
Settings: Homo sapiens; five-dose; SNB-75
pIC50: −log10 of the molar value.
measurement.type: pIC50

// query Given Cc1nc(SCC(=O)N2CCN(c3cc4c(cc3F)c(=O)c(C(=O)O)cn4C3CC3)CC2)sc1C(=O)/C=C/c1cccc(F)c1 [Compound 4d] , state its recorded pIC50.
// result < 4.00

Further cases:
// query Given Cc1nc(SCC(=O)N2CCN(c3cc4c(cc3F)c(=O)c(C(=O)O)cn4C3CC3)CC2)sc1C(=O)/C=C/c1cccc(Cl)c1 [Compound 4b] , state its recorded pIC50.
// result < 4.00

* * *

Test system: 786−0
Assay: NCI-60 screening, one-dose (10 µM) and five-dose, SRB
Format: cell-based, human
Details: Homo sapiens; 10 μM; 786−0, Renal Cancer; read-out: Growth percentage
Reported activity at 10 µM by item:
Give the quantity in %, number only.

The following molecules have reported results that may help.
// query Given Cc1nc(SCC(=O)N2CCN(c3cc4c(cc3F)c(=O)c(C(=O)O)cn4C3CC3)CC2)sc1C(=O)/C=C/c1ccc(Cl)cc1 , state its recorded activity at 10 µM.
// result 96.2

// query Given Cc1nc(SCC(=O)N2CCN(c3cc4c(cc3F)c(=O)c(C(=O)O)cn4C3CC3)CC2)sc1C(=O)/C=C/c1ccc(N(C)C)cc1 , state its recorded activity at 10 µM.
// result 59.2

// query Given Cc1nc(SCC(=O)N2CCN(c3cc4c(cc3F)c(=O)c(C(=O)O)cn4C3CC3)CC2)sc1C(=O)/C=C/c1ccc(F)cc1 , state its recorded activity at 10 µM.
// result 88.3

// query Given COc1cccc(/C=C/C(=O)c2sc(SCC(=O)N3CCN(c4cc5c(cc4F)c(=O)c(C(=O)O)cn5C4CC4)CC3)nc2C)c1OC , state its recorded activity at 10 µM.
// result 96.9

// query Given COc1ccc(/C=C/C(=O)c2sc(SCC(=O)N3CCN(c4cc5c(cc4F)c(=O)c(C(=O)O)cn5C4CC4)CC3)nc2C)cc1 , state its recorded activity at 10 µM.
// result 88.6

// query Given Cc1nc(SCC(=O)N2CCN(c3cc4c(cc3F)c(=O)c(C(=O)O)cn4C3CC3)CC2)sc1C(=O)/C=C/c1ccc(Br)cc1 , state its recorded activity at 10 µM.
// result 93.6

Further cases:
// query Given Cc1nc(SCC(=O)N2CCN(c3cc4c(cc3F)c(=O)c(C(=O)O)cn4C3CC3)CC2)sc1C(=O)/C=C/c1cccc([N+](=O)[O-])c1 , state its recorded activity at 10 µM.
// result 71.2

// query Given Cc1nc(SCC(=O)N2CCN(c3cc4c(cc3F)c(=O)c(C(=O)O)cn4C3CC3)CC2)sc1C(=O)/C=C/c1cccc(F)c1 , state its recorded activity at 10 µM.
// result 41.9

* * *

Test system: U251
Test: NCI-60 screening, one-dose (10 µM) and five-dose, SRB
Assay type: cell-based, human
Conditions: Homo sapiens, U-251; 10 μM; U251, CNS Cancer; read-out: Growth percentage
Reported activity at 10 µM by item:
Give the quantity in %, number only.

The following molecules have reported results that may help.
// query Given CC(=O)c1sc(SCC(=O)N2CCN(c3cc4c(cc3F)c(=O)c(C(=O)O)cn4C3CC3)CC2)nc1C , state its recorded activity at 10 µM.
// result 114

// query Given Cc1nc(SCC(=O)N2CCN(c3cc4c(cc3F)c(=O)c(C(=O)O)cn4C3CC3)CC2)sc1C(=O)/C=C/c1cccc([N+](=O)[O-])c1 , state its recorded activity at 10 µM.
// result 50.7

Further cases:
// query Given Cc1nc(SCC(=O)N2CCN(c3cc4c(cc3F)c(=O)c(C(=O)O)cn4C3CC3)CC2)sc1C(=O)/C=C/c1ccc(Cl)cc1 , state its recorded activity at 10 µM.
// result 111

* * *

Tested on: K-562
Assay: NCI-60 screening, one-dose (10 µM) and five-dose, SRB
Format: cell-based, human
Settings: Homo sapiens, K562, 10 μM; K-562, Leukemia; read-out: Growth percentage
Reported activity at 10 µM by item:
Give the quantity in %, number only.

// query Given Cc1nc(SCC(=O)N2CCN(c3cc4c(cc3F)c(=O)c(C(=O)O)cn4C3CC3)CC2)sc1C(=O)/C=C/c1cccc(F)c1 , state its recorded activity at 10 µM.
// result 56.1

* * *

Tested on: COLO 205
Assay: NCI-60 screening, one-dose (10 µM) and five-dose, SRB
Assay type: cell-based, human
Conditions: Homo sapiens; five-dose; COLO 205
measurement.type: IC50

// query Given Cc1nc(SCC(=O)N2CCN(c3cc4c(cc3F)c(=O)c(C(=O)O)cn4C3CC3)CC2)sc1C(=O)/C=C/c1cccc(F)c1 , state its recorded IC50.
// result 9.3 µM

Further cases:
// query Given Cc1nc(SCC(=O)N2CCN(c3cc4c(cc3F)c(=O)c(C(=O)O)cn4C3CC3)CC2)sc1C(=O)/C=C/c1cccc(Cl)c1 , state its recorded IC50.
// result 6.2 µM

* * *

System: MDA-MB-435
Test: NCI-60 screening, one-dose (10 µM) and five-dose, SRB
Format: cell-based
Conditions: Homo sapiens, MDA-MB-435, read-out: Growth percentage, 10 μM; MDA-MB-435, Melanoma
Reported activity at 10 µM by item:
Give the quantity in %, number only.

The following molecules have reported results that may help.
// query Given Cc1nc(SCC(=O)N2CCN(c3cc4c(cc3F)c(=O)c(C(=O)O)cn4C3CC3)CC2)sc1C(=O)/C=C/c1ccc(Br)cc1 [Compound 4f] , state its recorded activity at 10 µM.
// result 107

// query Given Cc1nc(SCC(=O)N2CCN(c3cc4c(cc3F)c(=O)c(C(=O)O)cn4C3CC3)CC2)sc1C(=O)/C=C/c1ccc(Cl)cc1 [Compound 4c] , state its recorded activity at 10 µM.
// result 102

// query Given CC(=O)c1sc(SCC(=O)N2CCN(c3cc4c(cc3F)c(=O)c(C(=O)O)cn4C3CC3)CC2)nc1C [Compound 4a] , state its recorded activity at 10 µM.
// result 99.4

# next molecule below
// query Given Cc1nc(SCC(=O)N2CCN(c3cc4c(cc3F)c(=O)c(C(=O)O)cn4C3CC3)CC2)sc1C(=O)/C=C/c1ccc([N+](=O)[O-])cc1 [Compound 4h] , state its recorded activity at 10 µM.
// result 88.4

* * *

Assay: In vitro cytotoxicity against normal cell line WI 38
Assay type: cell-based
Settings: human, WI-38 normal cell line; WI38, 100uM
Reported viability at 100 µM by item:
Give the quantity in %, number only.

// query Given Cc1nc(SCC(=O)N2CCN(c3cc4c(cc3F)c(=O)c(C(=O)O)cn4C3CC3)CC2)sc1C(=O)/C=C/c1cccc(F)c1 [Compound 4d] , state its recorded viability at 100 µM.
// result 44

Further cases:
// query Given Cc1nc(SCC(=O)N2CCN(c3cc4c(cc3F)c(=O)c(C(=O)O)cn4C3CC3)CC2)sc1C(=O)/C=C/c1cccc(Cl)c1 [Compound 4b] , state its recorded viability at 100 µM.
// result 37.1

* * *

Tested on: COLO 205
Assay: NCI-60 screening, one-dose (10 µM) and five-dose, SRB
Assay type: cell-based, human
Conditions: Homo sapiens; 10 μM; COLO 205, Colon Cancer; read-out: Growth percentage
Reported activity at 10 µM by item:

// query Given Cc1nc(SCC(=O)N2CCN(c3cc4c(cc3F)c(=O)c(C(=O)O)cn4C3CC3)CC2)sc1C(=O)/C=C/c1ccc(Cl)cc1 , state its recorded activity at 10 µM.
// result 107%

// query Given COc1ccc(/C=C/C(=O)c2sc(SCC(=O)N3CCN(c4cc5c(cc4F)c(=O)c(C(=O)O)cn5C4CC4)CC3)nc2C)cc1 , state its recorded activity at 10 µM.
// result 106%

# next molecule below
// query Given COc1cccc(/C=C/C(=O)c2sc(SCC(=O)N3CCN(c4cc5c(cc4F)c(=O)c(C(=O)O)cn5C4CC4)CC3)nc2C)c1OC , state its recorded activity at 10 µM.
// result 126%

* * *

Test system: 786−0
Assay: NCI-60 screening, one-dose (10 µM) and five-dose, SRB
Assay type: cell-based, human
Conditions: Homo sapiens; 10 μM; 786−0, Renal Cancer; read-out: Growth percentage
measurement.type: activity at 10 µM (%)
Give the quantity in %, number only.

The following compounds have reported results that may help.
// query Find the measured activity at 10 µM: item Cc1nc(SCC(=O)N2CCN(c3cc4c(cc3F)c(=O)c(C(=O)O)cn4C3CC3)CC2)sc1C(=O)/C=C/c1ccc([N+](=O)[O-])cc1 , target or system 786−0.
// result 87.6

// query Find the measured activity at 10 µM: item CC(=O)c1sc(SCC(=O)N2CCN(c3cc4c(cc3F)c(=O)c(C(=O)O)cn4C3CC3)CC2)nc1C , target or system 786−0.
// result 96.2

# next compound below
// query Find the measured activity at 10 µM: item Cc1nc(SCC(=O)N2CCN(c3cc4c(cc3F)c(=O)c(C(=O)O)cn4C3CC3)CC2)sc1C(=O)/C=C/c1cccc(Cl)c1 , target or system 786−0.
// result 74.3
